- Test system: L1210 leukemia ip in BDF1 mice, survival T/C
- assay_info: NCI In Vivo Anticancer Drug Screen. Data for tumor model L1210 Leukemia (intraperitoneal) in B6D2F1 (BDF1) mice
- protocol_conditions: endpoint: mean survival time; dose: 50.0 mg/kg/injection; schedule: Q01DX009 (ip); vehicle: Klucel (hydroxypropylcellulose) (HPC); higher = longer survival
Inconclusive results and toxic doses are left out.

# compound, T/C
measured = [
    ("Cc1[nH][nH]c(=O)c1N=Nc1ccccc1", "94 % of control"),
    ("Cc1ccc(C)c(NC(=O)Oc2ccc(F)cc2Cl)c1", "91 % of control"),
    ("N=C(N)c1ccc(OCCCCOc2ccc(N)cc2Cl)cc1", "111 % of control"),
    ("O=c1cc(-c2ccc(Cl)cc2)oc(-c2ccc(Cl)cc2)c1", "94 % of control"),
    ("CCN(CC)CCC(C#N)(CC=C(C)C)c1cccc2ccccc12 (configuration not stated)", "97 % of control"),
    ("CCOP(OCC)SSCn1nc2ccc3ccccc3n2c1=O", "101 % of control"),
    ("O=C(O)c1c(Cl)c(Cl)c(Cl)c(C(=O)O)c1Cl", "98 % of control"),
]
